Please provide measured Kd for the entries that follow.
# SYSTEM_NAME: T1, hu-M-IL1RAP construct, positions S21-T367 (extracellular domain of the membrane form of human IL1RAP) (human, UniProt Q9NPH3 21-367)
# T1 construct: Biotinylated when captured on the Biacore chip
# T1 sequence: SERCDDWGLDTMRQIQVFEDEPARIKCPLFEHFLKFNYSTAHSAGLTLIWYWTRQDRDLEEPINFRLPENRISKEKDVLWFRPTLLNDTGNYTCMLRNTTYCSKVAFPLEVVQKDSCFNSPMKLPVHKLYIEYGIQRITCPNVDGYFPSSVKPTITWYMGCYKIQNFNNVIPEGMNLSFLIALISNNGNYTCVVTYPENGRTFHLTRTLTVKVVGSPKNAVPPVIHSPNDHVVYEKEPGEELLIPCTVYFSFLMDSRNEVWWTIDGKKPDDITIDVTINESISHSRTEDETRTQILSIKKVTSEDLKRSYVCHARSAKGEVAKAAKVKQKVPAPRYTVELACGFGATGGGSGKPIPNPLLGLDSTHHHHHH
# ASSAY_EXPLANATION: SPR, Fab analyte, 37 C

Indicate its recorded Kd; the binder in question is K13/H12 Fab (VL-A51Y/W92I, VH-M34V) (Fab, V domains shown, Fab with 8xHis tag) VH: EVQLVESGGGLVQPGGSLRLSCAASGFTFSNYAVSWVRQAPGKGLEWVATVTEGGDYNYYLDDVKGRFTISRDNAKNSLYLQMNSLRAEDTAVYYCARDRWPYFFDYWGQGTLVTVSS VL: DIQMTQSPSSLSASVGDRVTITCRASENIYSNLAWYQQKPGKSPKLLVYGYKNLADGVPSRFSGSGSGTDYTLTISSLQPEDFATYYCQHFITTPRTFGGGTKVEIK 0.0363 nM

Indicate its recorded Kd; the binder in question is K10/H3 Fab (VL-A51Y, VH-V51S) (Fab, V domains shown, Fab with 8xHis tag) VH: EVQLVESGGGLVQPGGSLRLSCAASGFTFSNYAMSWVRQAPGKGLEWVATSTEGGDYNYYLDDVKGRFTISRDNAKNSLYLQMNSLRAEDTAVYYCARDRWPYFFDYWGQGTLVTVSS VL: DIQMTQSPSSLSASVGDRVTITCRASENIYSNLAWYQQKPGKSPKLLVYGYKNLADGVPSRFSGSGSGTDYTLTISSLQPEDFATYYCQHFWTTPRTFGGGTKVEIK 0.0242 nM
